Please respond with reported TGI for every item in the list.
test system: PC-3 prostate; assay: NCI tumour cell line growth inhibition, 48 h
Residues, ends and D or L forms follow the SMILES beside them. *: point of attachment. Boc = CC(C)(C)OC(=O)*; OBn = c1ccc(CO*)cc1

Consider the reported TGI for these compounds:
COMPOUND	TGT	REPORTED_ENDPOINT	MEASUREMENT
c1cc2c(s1)SSSSS2	PC-3 prostate	TGI	39.6 µM
CC(=O)Oc1c(-c2ccccc2)oc2ccccc12	PC-3 prostate	TGI	4.55 µM
COc1cc2ccnc(C=O)c2cc1OC	PC-3 prostate	TGI	> 100 µM
CC(C)CC(NC(=O)OC(C)(C)C)C(=O)NC(CC(=O)OCc1ccccc1)C(N)=O (stereo not drawn) (Boc-Leu-Asp(OBn)-NH2; configuration not given here)	PC-3 prostate	TGI	> 100 µM
O=C(COc1nc2ccccc2nc1-c1ccccc1)Nc1ccc(Cl)cc1	PC-3 prostate	TGI	> 100 µM

Consider the additional compound presented here.
I looked up `C[n+]1c(-c2ccccc2)c2cc(N)ccc2c2ccccc21` and its TGI for PC-3 prostate was 31.8 µM
